The following compounds are shown together with reported TGI values.
Test system: SF-295 CNS
Assay: NCI tumour cell line growth inhibition, 48 h
readout_name: TGI

- compound: "C=CC(OCC)(OCC)OCC"
  readout_name: "TGI"
  recorded_result: "> 100 µM"
- compound: "Cn1c2ccccc2c(=O)c2c(O)cc3c(c21)C=CC1(CCCCC1)O3"
  readout_name: "TGI"
  recorded_result: "> 10 µM"
- compound: "CN(C)C(=O)O[C@H]1CN[C@H](C#Cc2cc3ncnc(Nc4ccc(OCc5cccc(F)c5)c(Cl)c4)c3s2)C1"
  readout_name: "TGI"
  recorded_result: "> 25 µM"
- compound: "O=C(N[C@@H](C[Se][Se]C[C@H](NC(=O)c1ccc(Br)cc1F)C(=O)O)C(=O)O)c1ccc(Br)cc1F"
  readout_name: "TGI"
  recorded_result: "> 100 µM"
- compound: "CC(=O)/C(=C/c1ccccc1F)C(=O)c1ccccc1"
  readout_name: "TGI"
  recorded_result: "> 100 µM"
- compound: "CCC(C(=O)C(=O)OC)P1(=O)OC(C)(C)CN1C(C)(C)C (stereo unspecified)"
  readout_name: "TGI"
  recorded_result: "> 100 µM"
- compound: "CCNC(=O)COc1ccc(Cl)cc1Cl"
  readout_name: "TGI"
  recorded_result: "> 100 µM"
- compound: "COC(=O)C1=Nc2c(C)nn(-c3ccccc3)c2N=C(c2ccccc2)C1"
  readout_name: "TGI"
  recorded_result: "> 10 µM"
- compound: "Cc1cnc2c(c1)C(=O)C1=C(C2=O)C2OC(=O)CC2OC1(C)C (stereo unspecified)"
  readout_name: "TGI"
  recorded_result: "2.68 µM"
- compound: "Nc1nn2c(=O)c3ccccc3nc2s1"
  readout_name: "TGI"
  recorded_result: "> 100 µM"
- compound: "O=c1[nH]nc(Cc2ccccc2)n1/N=C/c1ccncc1"
  readout_name: "TGI"
  recorded_result: "> 100 µM"

====

Listed here are molecules together with their documented GI50.
Tested on: OVCAR-8 ovarian
Assay: NCI tumour cell line growth inhibition, 48 h
readout_name: GI50

- molecule: "N#Cc1ccc(NC(=O)C(CC(=O)OCc2ccccc2)NC(=O)OCc2ccccc2)cc1 (configuration not stated)"
  subject_of_test: "OVCAR-8 ovarian"
  recorded_result: "> 100 µM"
- molecule: "CCOC(=O)/C(C#N)=C\\C=C(/Cl)c1ccc(Cl)cc1"
  subject_of_test: "OVCAR-8 ovarian"
  recorded_result: "19.4 µM"
- molecule: "O=C1OCC2=C1C(c1ccccc1)c1cc3c(cc1N2CCO)OCO3 (configuration not stated)"
  subject_of_test: "OVCAR-8 ovarian"
  recorded_result: "12.1 µM"
- molecule: "O=C(Nc1ccc(Cl)c(Cl)c1)NS(=O)(=O)c1cnccc1Oc1ccc(F)cc1"
  subject_of_test: "OVCAR-8 ovarian"
  recorded_result: "4.82 µM"
- molecule: "CNC(=O)c1nn(C)c2c1C(C)(C)Cc1cnc(Nc3ccc(N4CCN(C)CC4)cc3)nc1-2"
  subject_of_test: "OVCAR-8 ovarian"
  recorded_result: "3.17 µM"
- molecule: "O=C(N/N=C/c1ccccc1O)c1ccccc1"
  subject_of_test: "OVCAR-8 ovarian"
  recorded_result: "3.46 µM"
- molecule: "O=c1oc2ccc(I)cc2c(=O)n1-c1ccc(Cl)cc1F"
  subject_of_test: "OVCAR-8 ovarian"
  recorded_result: "1.66 µM"
